Reference source: paper PMC3660597

Substrate: NCc1c[nH]c2nc(N)[nH]c(=O)c12
protocol_text: [3H]-preQ1 incorporation into tRNA(Tyr), scintillation counting
Type: biochemical, Zymomonas mobilis
experimental_context: 15 µM E. coli tRNA(Tyr), 200 mM HEPES pH 7.3, 20 mM MgCl2, 37°C, labelled compound
metric_name: kcat (s⁻¹)
Give just the number in s⁻¹; leave the unit off.

Data request, read-out kcat, for Z. mobilis Tgt ("wild type" Tgt = Tgt(Tyr106Phe)) (Zymomonas mobilis subsp. mobilis ZM4 = ATCC 31821; V233G/Y106F) (protein, recombinant from pET9d-ZM-Y106F in E. coli BL21(DE3)/pLysS, purified; homodimer; all variants including "wild type" carry Tyr106Phe) VEATAQETDRPRFSFSIAAREGKARTGTIEMKRGVIRTPAFMPVGTAATVKALKPETVRATGADIILGNTYHLMLRPGAERIAKLGGLHSFMGWDRPILTDSGGFQVMSLSSLTKQSEEGVTFKSHLDGSRHMLSPERSIEIQHLLGSDIVMAFDECTPYPATPSRAASSMERSMRWAKRSRDAFDSRKEQAENAALFGIQQGSVFENLRQQSADALAEIGFDGYAVGGLAGGEGQDEMFRVLDFSVPMLPDDKPHYLMGVGKPDDIVGAVERGIDMFDCVLPTRSGRNGQAFTWDGPINIRNARFSEDLTPLDSECHCAVCQKWSRAYIHHLIRAGEILGAMLMTEHNIAFYQQLMQKIRDSISEGRFSQFAQDFRARYFARNS 0.0063
